The origin of these recorded values is patent US20230416329A1.

Target: UniProtKB P00772
Assay: Elastase inhibitory activity of peptides (AAApNA hydrolysis; IC50, Ki, residual activity)
Type: biochemical
Conditions: read-out: Ki
Bridge positions count the residues as written; N and C are the ends. Square brackets hold non-standard residues; d marks the D form. Peptide text beside a SMILES is read from it. Hyp = O=C(O)[C@@H]1C[C@@H](O)CN1
pKi reference
Friendly reminder that pKi comes from taking -log10 of the concentration in mol/L.

Examples from the recorded data:
[[record]]
molecule = "CC[C@H](C)[C@H](N)C(=O)N[C@H]1CSSC[C@@H](C(=O)N[C@@H](CCC(N)=O)C(=O)O)NC(=O)[C@H](CCC(N)=O)NC(=O)[C@@H]2CCCN2C(=O)[C@@H]2CCCN2C(=O)[C@H]([C@@H](C)CC)NC(=O)[C@H](CO)NC(=O)[C@H](C)NC(=O)[C@H]([C@@H](C)O)NC1=O [EC19] (H-ICTASIPPQCQ-OH; disulfide 2-10; N-terminus and C-terminus assumed)"
obs_value = 6.48

[[record]]
molecule = "CC[C@H](C)[C@@H]1NC(=O)[C@H](CO)NC(=O)[C@H](C)NC(=O)[C@H]([C@@H](C)O)NC(=O)[C@@H](NC(=O)[C@@H](N)CC(C)C)CSSC[C@@H](C(=O)N[C@@H](Cc2ccc(O)cc2)C(=O)O)NC(=O)[C@H](CCC(N)=O)NC(=O)[C@@H]2CCCN2C(=O)[C@@H]2CCCN2C1=O [EC1] (H-LCTASIPPQCY-OH; disulfide 2-10; C-terminus assumed)"
obs_value = 6.48

[[record]]
molecule = "CC[C@H](C)[C@@H]1NC(=O)[C@@H]2CCCN2C(=O)[C@@H]2CCCN2C(=O)[C@H]([C@@H](C)CC)NC(=O)[C@H](CO)NC(=O)[C@H](C)NC(=O)[C@H]([C@@H](C)O)NC(=O)[C@@H](NC(=O)[C@@H](N)C(C)C)CSSC[C@@H](C(=O)N[C@@H](CCC(N)=O)C(=O)O)NC1=O [EC22] (H-VCTASIPPICQ-OH; disulfide 2-10; C-terminus assumed)"
obs_value = 6.96


Now look at this one.
// field: pKi; key: CC[C@H](C)[C@H](N)C(=O)N[C@H]1CSSC[C@@H](C(=O)N[C@@H](CCC(N)=O)C(=O)O)NC(=O)[C@H]([C@@H](C)CC)NC(=O)[C@@H]2CCCN2C(=O)[C@@H]2C[C@@H](O)CN2C(=O)[C@H]([C@@H](C)CC)NC(=O)[C@H](CO)NC(=O)[C@H](C)NC(=O)[C@H]([C@@H](C)O)NC1=O [EC47] (H-ICTASI[Hyp]PICQ-OH; disulfide 2-10; C-terminus assumed) ; value = 6.96

====

Target: α-chymotrypsin (Bos taurus, UniProt P00766)
Assay: Chymotrypsin inhibitory activity of peptides (AAPFpNA hydrolysis; IC50, Ki, residual activity)
Type: biochemical
Conditions: peptide 10 μM
Bridge positions count the residues as written; N and C are the ends. Peptide text beside a SMILES is read from it.
endpoint-label: Residual activity of chymotrypsin

[[record]]
molecule = "CC[C@H](C)[C@@H]1NC(=O)[C@H](CO)NC(=O)[C@H](Cc2ccc(O)cc2)NC(=O)[C@H]([C@@H](C)O)NC(=O)[C@H](C)NC(=O)[C@H](C)NC(=O)CNC(=O)[C@@H](N)CSSC[C@@H](C(=O)N[C@@H](Cc2ccccc2)C(=O)O)NC(=O)[C@H](CCCCN)NC(=O)[C@H](C)NC(=O)[C@@H]2CCCN2C1=O [CH31] (H-CGAATYSIPAKCF-OH; disulfide 1-12; N-terminus and C-terminus assumed)"
endpoint_label = "Residual activity of chymotrypsin"
obs_value = "29.5 ± 5.1%"

[[record]]
molecule = "CC[C@H](C)[C@@H]1NC(=O)[C@@H]2CCCN2C(=O)[C@@H]2CCCN2C(=O)[C@H]([C@@H](C)CC)NC(=O)[C@H](CO)NC(=O)[C@H](Cc2ccccc2)NC(=O)[C@H]([C@@H](C)O)NC(=O)[C@H](C)NC(=O)[C@H]([C@@H](C)O)NC(=O)CNC(=O)[C@@H](N)CSSC[C@@H](C(=O)N[C@@H](CC(N)=O)C(=O)O)NC1=O [CH27] (H-CGTATFSIPPICN-OH; disulfide 1-12; N-terminus and C-terminus assumed)"
endpoint_label = "Residual activity of chymotrypsin"
obs_value = "26.2 ± 2.4%"


// field: Residual activity of chymotrypsin; key: CC[C@H](C)[C@@H]1NC(=O)[C@H](CO)NC(=O)[C@H](Cc2ccccc2)NC(=O)[C@H]([C@@H](C)O)NC(=O)CNC(=O)[C@H](Cc2ccccc2)NC(=O)CNC(=O)[C@@H](N)CSSC[C@@H](C(=O)N[C@@H](Cc2ccc(O)cc2)C(=O)NCC(=O)O)NC(=O)[C@H](CCC(N)=O)NC(=O)[C@@H]2CCCN2C(=O)[C@@H]2CCCN2C1=O [CH7] (H-CGFGTFSIPPQCYG-OH; disulfide 1-12; N-terminus and C-terminus assumed) ; value = 77.7 ± 2.0%

====

α-chymotrypsin (Bos taurus, UniProt P00766) Ki data
Bridge positions count the residues as written; N and C are the ends. Peptide text beside a SMILES is read from it.
# number only, unit nM dropped from output

Examples from the recorded data:
[[record]]
compound = "CSCC[C@@H]1NC(=O)[C@H](CO)NC(=O)[C@H](Cc2ccc(O)cc2)NC(=O)[C@H]([C@@H](C)O)NC(=O)[C@@H](NC(=O)[C@@H](N)Cc2ccccc2)CSSC[C@@H](C(=O)N[C@H](C(=O)O)C(C)C)NC(=O)[C@H](Cc2c[nH]cn2)NC(=O)[C@@H]2CCCN2C(=O)[C@@H]2CCCN2C1=O [CH41] (H-FCTYSMPPHCV-OH; disulfide 2-10; N-terminus and C-terminus assumed)"
obs_value = 1120

[[record]]
compound = "CC[C@H](C)[C@@H]1NC(=O)[C@H](CO)NC(=O)[C@H](Cc2ccc(O)cc2)NC(=O)[C@H]([C@@H](C)O)NC(=O)[C@H](C)NC(=O)[C@H](C)NC(=O)CNC(=O)CNC(=O)[C@@H](N)CSSC[C@@H](C(=O)N[C@@H](Cc2ccccc2)C(=O)O)NC(=O)[C@H](CCCCN)NC(=O)[C@H](C)NC(=O)[C@@H]2CCCN2C1=O [CH32] (H-CGGAATYSIPAKCF-OH; disulfide 1-13; N-terminus and C-terminus assumed)"
obs_value = 2760

[[record]]
compound = "CC[C@H](C)[C@@H]1NC(=O)[C@H](CO)NC(=O)[C@H](Cc2ccccc2)NC(=O)[C@H]([C@@H](C)O)NC(=O)CNC(=O)[C@H](Cc2ccccc2)NC(=O)CNC(=O)[C@@H](N)CSSC[C@@H](C(=O)N[C@@H](Cc2ccc(O)cc2)C(=O)NCC(=O)O)NC(=O)[C@H](CCC(N)=O)NC(=O)[C@@H]2CCCN2C(=O)[C@@H]2CCCN2C1=O [CH7] (H-CGFGTFSIPPQCYG-OH; disulfide 1-12; N-terminus and C-terminus assumed)"
obs_value = 9650

[[record]]
compound = "CC[C@H](C)[C@@H]1NC(=O)[C@H](CO)NC(=O)[C@H](Cc2ccc(O)cc2)NC(=O)[C@H]([C@@H](C)O)NC(=O)[C@@H](NC(=O)[C@@H](N)Cc2ccccc2)CSSC[C@@H](C(=O)N[C@@H](Cc2ccc(O)cc2)C(=O)O)NC(=O)[C@H](CCC(N)=O)NC(=O)[C@H](C)NC(=O)[C@@H]2CCCN2C1=O [CH37] (H-FCTYSIPAQCY-OH; disulfide 2-10; N-terminus and C-terminus assumed)"
obs_value = 780


Now look at this one.
// field: Ki; key: CSCC[C@H](N)C(=O)N[C@H]1CSSC[C@@H](C(=O)N[C@H](C(=O)O)C(C)C)NC(=O)[C@H](CCCCN)NC(=O)[C@H](C)NC(=O)[C@@H]2CCCN2C(=O)[C@H](Cc2c[nH]cn2)NC(=O)[C@H](CO)NC(=O)[C@H](Cc2ccccc2)NC(=O)[C@H]([C@@H](C)O)NC1=O [CH49] (H-MCTFSHPAKCV-OH; disulfide 2-10; N-terminus and C-terminus assumed) ; value = 9810

====

Target: porcine pancreatic elastase (Sus scrofa)
Sequence (P00772 27-266): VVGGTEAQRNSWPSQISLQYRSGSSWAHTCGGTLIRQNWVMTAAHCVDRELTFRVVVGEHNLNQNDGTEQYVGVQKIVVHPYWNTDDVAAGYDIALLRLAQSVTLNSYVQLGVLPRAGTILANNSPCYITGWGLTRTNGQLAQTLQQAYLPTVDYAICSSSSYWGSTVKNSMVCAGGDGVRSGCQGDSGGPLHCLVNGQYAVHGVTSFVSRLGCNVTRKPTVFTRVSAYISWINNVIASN
Experiment: Elastase inhibitory activity of peptides (AAApNA hydrolysis; IC50, Ki, residual activity)
Type: biochemical
Details: peptide 0.01 μM; elastase 0.5 μM, AAApNA 1 mM
Bridge positions count the residues as written; N and C are the ends. Peptide text beside a SMILES is read from it.
Residual activity of elastase reference
# number only, unit % dropped from output

Examples from the recorded data:
[[record]]
compound = "CC[C@H](C)[C@@H]1NC(=O)[C@H](CO)NC(=O)[C@H](C)NC(=O)[C@H]([C@@H](C)O)NC(=O)[C@@H](NC(=O)[C@@H](N)CC(C)C)CSSC[C@@H](C(=O)N[C@@H](CCC(N)=O)C(=O)O)NC(=O)[C@H](CCC(N)=O)NC(=O)[C@@H]2CCCN2C(=O)[C@@H]2CCCN2C1=O [EC18] (H-LCTASIPPQCQ-OH; disulfide 2-10; N-terminus and C-terminus assumed)"
system_tested = "porcine pancreatic elastase (Sus scrofa)"
endpoint_label = "Residual activity of elastase"
value_unit = "%"
obs_value = 100.6

[[record]]
compound = "CC[C@H](C)[C@H](N)C(=O)N[C@H]1CSSC[C@@H](C(=O)N[C@@H](CCC(N)=O)C(=O)O)NC(=O)[C@H](CCC(N)=O)NC(=O)[C@@H]2CCCN2C(=O)[C@@H]2CCCN2C(=O)[C@H]([C@@H](C)CC)NC(=O)[C@H](CO)NC(=O)[C@H](C)NC(=O)[C@H]([C@@H](C)O)NC1=O [EC19] (H-ICTASIPPQCQ-OH; disulfide 2-10; N-terminus and C-terminus assumed)"
system_tested = "porcine pancreatic elastase (Sus scrofa)"
endpoint_label = "Residual activity of elastase"
value_unit = "%"
obs_value = 99.4


// field: Residual activity of elastase; key: CC[C@H](C)[C@H](N)C(=O)N[C@H]1CSSC[C@@H](C(=O)N[C@@H](CCC(N)=O)C(=O)O)NC(=O)[C@H]([C@@H](C)CC)NC(=O)[C@@H]2CCCN2C(=O)[C@@H]2CCCN2C(=O)[C@H]([C@@H](C)CC)NC(=O)[C@H](CO)NC(=O)[C@H](C)NC(=O)[C@H]([C@@H](C)O)NC1=O [EC23] (H-ICTASIPPICQ-OH; disulfide 2-10; C-terminus assumed) ; value = 97.8
